B1: FAM189A2 (parent)
chain: VAAALRYLQIFATRRSCIDESQIS

- Variants of: B1
- Assay name: protein stability index of a GFP-peptide fusion (GPS, HEK-293T) (PSI 1-6); higher = more stable;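 note: lentivirally expressed fusions sorted by FACS into six bins by GFP to DsRed ratio, PSI derived from sequencing read proportions per bin multiplied by bin number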
- Run parameters: c terminus: a fixed tail appended
Note to self: class = bucket of protein stability index, per low bin = under 2, mid bin = from 2 up to 3, high bin = 3 and over

{"columns": ["Variant label", "Class assignment"],
 "data": [
  ["Y7E", "mid bin"],
  ["C17K", "low bin"],
  ["R15K", "mid bin"],
  ["A2G", "mid bin"],
  ["S16M", "high bin"],
  ["L5D", "mid bin"],
  ["I10V", "low bin"],
  ["Q22S", "mid bin"],
  ["F11W", "mid bin"],
  ["T13H", "mid bin"],
  ["L5A", "high bin"],
  ["C17Q", "mid bin"],
  ["V1D", "low bin"],
  ["D19G", "mid bin"],
  ["Y7M", "mid bin"],
  ["L8V", "mid bin"],
  ["I10S", "mid bin"],
  ["I23G", "low bin"],
  ["I10Y", "mid bin"],
  ["V1Y", "low bin"],
  ["R14T", "mid bin"],
  ["S21D", "mid bin"],
  ["I23A", "low bin"],
  ["V1N", "low bin"],
  ["T13D", "low bin"],
  ["A2I", "high bin"],
  ["R15M", "low bin"],
  ["D19W", "high bin"],
  ["F11N", "low bin"],
  ["I23D", "low bin"],
  ["Q9P", "mid bin"],
  ["E20P", "high bin"],
  ["C17R", "low bin"],
  ["S21R", "mid bin"],
  ["R14M", "low bin"],
  ["I10E", "mid bin"],
  ["C17I", "mid bin"],
  ["S24F", "high bin"],
  ["L8S", "low bin"],
  ["I10C", "low bin"],
  ["V1W", "low bin"],
  ["E20S", "mid bin"],
  ["R15P", "low bin"],
  ["F11G", "low bin"],
  ["L5S", "low bin"],
  ["E20L", "high bin"],
  ["R15A", "mid bin"],
  ["V1P", "low bin"],
  ["S16I", "low bin"],
  ["C17H", "low bin"],
  ["V1C", "low bin"],
  ["R6M", "high bin"],
  ["I18Y", "mid bin"],
  ["D19K", "high bin"],
  ["T13E", "mid bin"],
  ["E20K", "high bin"],
  ["V1S", "low bin"],
  ["I18P", "mid bin"]
]}
